target_entity: T1, human FOLR1 expressed on SKOV-3 ovarian carcinoma cells (human, UniProt P15328 25-234)
T1 construct: Naturally expressed receptor on SKOV-3 cells; also called human FOLR1pos SKOV-3 cancer cells; human FOLR1-expressing cell line SKOV-3
assay_summary: cellular retention on SKOV-3 cells: 10 nM 131I-VHH 1 h at 4 C, then up to 24 h at 37 C; membrane-bound plus internalized fraction
Record form. Attribute: cell-associated fraction of initial bound activity after 24 h. Fill in for each entry.
Kindly answer with a numeric value in %, unit omitted.

Using known records, supply cell-associated fraction of initial bound activity after 24 h for 131I-labeled His6-tagged VHH A4 (VHH, [131I]SGMIB conjugated to lysine side-chain amine groups) VHH: DVQLVESGGGLARAGGSLRLSCAASGRAFSSTYAMGWFRQAPGKEREFVADINWSEGSPMYIDSVKDRFTISRDNARNSLYLQMNSLKSEDTAVYYCAARRFGQGYEYWGQGTQVTVSS
10

Annotate the binder 131I-labeled untagged VHH A3 (VHH, [131I]SGMIB conjugated to lysine side-chain amine groups) VHH: DVQLVESGGGLVQAGGSLRLSCGVSGNMFSMNLMGWYRQPPGKERDWVAVITKDGSTNYADSVKGRFTISRDNAKNTVSLQMNSLKPEDTAVYYCNVQDGSGWIRAWGWDWGQGTQVTVSS with its measured cell-associated fraction of initial bound activity after 24 h.
15

State its cell-associated fraction of initial bound activity after 24 h for this binder: 131I-labeled His6-tagged VHH A3 (VHH, [131I]SGMIB conjugated to lysine side-chain amine groups) VHH: DVQLVESGGGLVQAGGSLRLSCGVSGNMFSMNLMGWYRQPPGKERDWVAVITKDGSTNYADSVKGRFTISRDNAKNTVSLQMNSLKPEDTAVYYCNVQDGSGWIRAWGWDWGQGTQVTVSS
20
